This listing pairs compounds with measured inhibition at 50 µM.
Target: AChE (Homo sapiens, UniProt P22303)
Sequence (P22303 32-614): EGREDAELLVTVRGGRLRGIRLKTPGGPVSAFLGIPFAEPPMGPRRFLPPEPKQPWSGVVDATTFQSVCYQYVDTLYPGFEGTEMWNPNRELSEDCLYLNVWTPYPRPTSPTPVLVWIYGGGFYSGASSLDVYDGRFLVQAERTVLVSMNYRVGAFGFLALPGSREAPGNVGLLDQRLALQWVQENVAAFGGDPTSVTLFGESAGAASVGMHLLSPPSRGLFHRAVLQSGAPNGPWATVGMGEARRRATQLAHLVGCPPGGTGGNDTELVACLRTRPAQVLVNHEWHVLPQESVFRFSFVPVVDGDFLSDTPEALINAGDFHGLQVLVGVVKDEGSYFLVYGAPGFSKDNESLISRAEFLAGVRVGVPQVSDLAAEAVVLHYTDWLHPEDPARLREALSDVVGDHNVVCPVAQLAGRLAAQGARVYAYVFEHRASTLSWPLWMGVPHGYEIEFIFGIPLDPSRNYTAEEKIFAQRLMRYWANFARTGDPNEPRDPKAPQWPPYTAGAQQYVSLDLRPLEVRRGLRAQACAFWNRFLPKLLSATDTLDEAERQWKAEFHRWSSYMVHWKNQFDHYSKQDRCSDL
Assay: biochemical
Conditions: 50 µM; mean ± S.E of three to five independent experiments; read-out: AChE % inhibition at 50 µM
Method: Cholinesterase inhibitory activities of all analogs were evaluated spectrometrically using the modified Ellman method as previously reported[40],[41]. […] The absorbance of each well was measured at 415 nm using a microplate reader. IC50 values and inhibition values were calculated with the software GraphPad Prism as the mean of three independent experiments and are expressed as mean ± SEM.
In your response, put the unit directly after the numeric value.

Worked examples, 2 compounds total:
• COc1ccc(NC2=C([N+](=O)[O-])C3(C(=O)Nc4ccc(Cl)cc43)C(C#N)=C(N)NN2)cc1 (stereo not shown) [Compound 5b] = 42.8%
• N#CC1=C(N)NNC(Nc2cccc(O)c2)=C([N+](=O)[O-])C12C(=O)Nc1c(Br)cc(Br)cc12 (stereo not shown) [Compound 5q] = 63.1%

Looking up N#CC1=C(N)NNC(Nc2ccc(O)cc2)=C([N+](=O)[O-])C12C(=O)Nc1c(C(F)(F)F)cccc12 (stereo not shown) [Compound 5v] , I see its inhibition at 50 µM listed as 17.7%

The compound listed as N#CC1=C(N)NNC(Nc2cccc(O)c2)=C([N+](=O)[O-])C12C(=O)Nc1c(C(F)(F)F)cccc12 (stereo not shown) [Compound 5u] shows inhibition at 50 µM equal to 16.4%

Per the records, this compound ( Cc1ccc(NC2=C([N+](=O)[O-])C3(C(=O)Nc4ccc(Cl)cc43)C(C#N)=C(N)NN2)cc1 (stereo not shown) [Compound 5a] ) has inhibition at 50 µM equal to 5.37%

Given item COc1ccc(OC)c(NC2=C([N+](=O)[O-])C3(C(=O)Nc4c(Br)cc(Br)cc43)C(C#N)=C(N)NN2)c1 (stereo not shown) [Compound 5p] , the value recorded as its inhibition at 50 µM is 73.4%

Entry Cc1ccccc1NC1=C([N+](=O)[O-])C2(C(=O)Nc3c(Cl)cc(Cl)cc32)C(C#N)=C(N)NN1 (stereo not shown) [Compound 5m] , inhibition at 50 µM reported as 24.8%

# inhibition at 50 µM of COc1ccc(OC)c(NC2=C([N+](=O)[O-])C3(C(=O)Nc4ccc(Cl)cc43)C(C#N)=C(N)NN2)c1 (stereo not shown) [Compound 5d] = 27.8%

Entry COc1ccc(NC2=C([N+](=O)[O-])C3(C(=O)Nc4c(C(F)(F)F)cccc43)C(C#N)=C(N)NN2)cc1 (stereo not shown) [Compound 5s] — recorded inhibition at 50 µM = 56%

Recorded inhibition at 50 µM (compound Cc1ccc(NC2=C([N+](=O)[O-])C3(C(=O)Nc4c(Br)cc(Br)cc43)C(C#N)=C(N)NN2)cc1 (stereo not shown) [Compound 5o] ): 37.6%
